# experiment_description: amyloid nucleation score (Sup35N fusion, yeast selection) (log enrichment); library NNK2; higher = more nucleation; inactive = no reads after selection;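 further: zero at mode of non-aggregating sequences after 7 days selection at 30°C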
parameter_measured: amyloid nucleation score

polymer_sequence=VYMHASCSERSMDESRNRVD parameter_measured="amyloid nucleation score" value_observed=inactive
polymer_sequence=KSVRIWPSVSAGTRRLKQS parameter_measured="amyloid nucleation score" value_observed=inactive
polymer_sequence=GYKDANQNM parameter_measured="amyloid nucleation score" value_observed=inactive
polymer_sequence=IFYHHLSWTEFRCGRTFLSV parameter_measured="amyloid nucleation score" value_observed=0.196

Consider now this further sequence.
# get_value(readout='amyloid nucleation score', item= "SVLAFKSFGSHCIGYIYVNL" ) inactive
